assay: HT29 colon tumor cell growth inhibition, primary screen, imaging, high content imaging, 72 h, CellTiter-Glo (AID 772); settings: HCS imaging cell count, measured here: percent cells with condensed nuclei, at 10 µM, stronger effect = higher value;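 further: condensed means nuclear area below control median minus 1.5 SD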
About 20 (0.6%) of roughly 3,300 compounds were called active. The sample holds actives, similar compounds and a random draw of the others, so the mix is not that of the screen.
Lab note: anything with condensed nuclei at or over 2% counts as rule met; the rest go in rule not met.

Worked cases, answers included:
# compound, assigned category
records = [
    ("Cc1ccccc1N1C(=O)CC(Sc2nnc(-c3ccccc3)o2)C1=O (stereo unspecified)", "rule met"),
    ("CCCCc1c(C)c2ccc(OCC(C)=O)cc2oc1=O", "rule met"),
    ("CCCCC(=O)c1c(C)cc(C)[nH]c1=O", "rule not met"),
]

Check the entry CC1(C)Cc2c(C#N)c(SCCOc3ccccc3)nc(N3CCOCC3)c2CO1 : does condensed nuclei equal or exceed 2%? rule not met

Check the entry CCCCCSc1nc(N2CCOCC2)c2c(c1C#N)CC(C)(C)OC2 : does condensed nuclei equal or exceed 2%? rule met

Check the entry CC(C)CCNc1nc2c(cc1C#N)COC(C)(C)C2 : does condensed nuclei equal or exceed 2%? rule not met
